# measured target: REFACTO® factor VIII-like polypeptide (amino acids 1-743 and 1638 through 2332 of human factor VIII) (human) (UniProt P00451)
# Sequence (P00451 20-762, chain 1 of 2): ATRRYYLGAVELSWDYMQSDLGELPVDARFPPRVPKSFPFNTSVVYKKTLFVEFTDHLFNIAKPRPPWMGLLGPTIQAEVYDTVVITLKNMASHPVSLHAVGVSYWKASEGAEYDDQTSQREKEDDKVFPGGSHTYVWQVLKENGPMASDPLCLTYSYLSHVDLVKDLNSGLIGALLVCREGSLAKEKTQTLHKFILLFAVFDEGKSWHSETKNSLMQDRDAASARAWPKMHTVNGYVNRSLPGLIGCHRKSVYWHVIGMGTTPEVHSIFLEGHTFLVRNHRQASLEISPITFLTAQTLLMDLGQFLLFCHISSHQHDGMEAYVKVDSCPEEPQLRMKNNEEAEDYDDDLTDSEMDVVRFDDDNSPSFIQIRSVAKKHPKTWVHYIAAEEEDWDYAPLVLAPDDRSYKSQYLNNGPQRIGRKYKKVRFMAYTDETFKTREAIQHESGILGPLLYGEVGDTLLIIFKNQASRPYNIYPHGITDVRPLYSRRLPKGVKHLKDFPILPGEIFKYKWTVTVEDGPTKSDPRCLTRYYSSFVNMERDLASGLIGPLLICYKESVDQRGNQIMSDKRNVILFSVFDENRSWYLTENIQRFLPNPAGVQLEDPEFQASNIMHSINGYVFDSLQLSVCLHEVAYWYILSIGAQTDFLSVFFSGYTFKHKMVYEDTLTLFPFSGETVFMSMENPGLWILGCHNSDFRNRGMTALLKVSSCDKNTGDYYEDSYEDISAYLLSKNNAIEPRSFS
# Sequence (P00451 1657-2351, chain 2 of 2): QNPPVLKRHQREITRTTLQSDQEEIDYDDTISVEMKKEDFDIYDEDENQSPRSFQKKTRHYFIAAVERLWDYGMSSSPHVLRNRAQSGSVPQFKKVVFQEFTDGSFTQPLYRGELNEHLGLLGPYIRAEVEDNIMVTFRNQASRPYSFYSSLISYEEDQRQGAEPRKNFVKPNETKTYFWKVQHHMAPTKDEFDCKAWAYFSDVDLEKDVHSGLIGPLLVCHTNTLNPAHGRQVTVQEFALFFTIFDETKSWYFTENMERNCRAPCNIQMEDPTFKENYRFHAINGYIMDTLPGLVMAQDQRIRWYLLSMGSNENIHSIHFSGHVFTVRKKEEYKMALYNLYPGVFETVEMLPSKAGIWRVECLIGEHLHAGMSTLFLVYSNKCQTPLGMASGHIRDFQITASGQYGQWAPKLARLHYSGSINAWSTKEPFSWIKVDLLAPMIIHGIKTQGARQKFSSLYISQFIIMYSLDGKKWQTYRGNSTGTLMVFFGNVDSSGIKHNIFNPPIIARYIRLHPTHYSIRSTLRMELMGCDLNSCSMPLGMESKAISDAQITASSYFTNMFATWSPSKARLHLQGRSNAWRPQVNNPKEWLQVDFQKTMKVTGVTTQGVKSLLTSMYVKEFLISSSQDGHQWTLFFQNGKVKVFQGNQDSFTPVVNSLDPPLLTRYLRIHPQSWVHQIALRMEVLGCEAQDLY
# experiment notes: phage ELISA, anti-M13-HRP
Would you kindly list log10 of ELISA signal for each of these binders?
Parameter value (number): base-10 log of ELISA signal in OD630.

Annotate the binder HPCGSWFRPCFH [TN8 isolate 02 (phage-displayed peptide, SEQ ID NO: 14)] with its measured log10 of ELISA signal.
-0.15

Annotate the binder FCHVFNFVHCS [TN9 isolate 01 (phage-displayed peptide, SEQ ID NO: 31)] with its measured log10 of ELISA signal.
-0.30

Annotate the binder RLCSWISPCSA [TN7 isolate D04 (phage-displayed peptide, SEQ ID NO: 7)] with its measured log10 of ELISA signal.
-0.52

Annotate the binder FCHVFHFSHCD [TN9 isolate 01 (phage-displayed peptide, SEQ ID NO: 24)] with its measured log10 of ELISA signal.
-0.70

Annotate the binder HPCGAWLRPCYN [TN8 isolate 08 (phage-displayed peptide, SEQ ID NO: 20)] with its measured log10 of ELISA signal.
0.00

Annotate the binder HSCGSWLFPCFA [TN7 isolate A06 (phage-displayed peptide, SEQ ID NO: 4)] with its measured log10 of ELISA signal.
-0.30

Annotate the binder HGCGAWFRPCHA [TN8 isolate 01 (phage-displayed peptide, SEQ ID NO: 18)] with its measured log10 of ELISA signal.
-0.70

Annotate the binder FCWVFPFQHCA [TN9 isolate 09 (phage-displayed peptide, SEQ ID NO: 29)] with its measured log10 of ELISA signal.
0.04

Annotate the binder HLCFAWFRPCDA [TN8 isolate 12 (phage-displayed peptide, SEQ ID NO: 17)] with its measured log10 of ELISA signal.
-0.40

Annotate the binder FCWVFNFSHCS [TN9 isolate 03 (phage-displayed peptide, SEQ ID NO: 26)] with its measured log10 of ELISA signal.
0.04

Annotate the binder FCWVFPFNHCS [TN9 isolate 12 (phage-displayed peptide, SEQ ID NO: 28)] with its measured log10 of ELISA signal.
0.00

Annotate the binder HPCGSWFNPCAH [TN8 isolate 02 (phage-displayed peptide, SEQ ID NO: 13)] with its measured log10 of ELISA signal.
-0.52

Annotate the binder HPCGAWFNPCPR [TN8 isolate 01 (phage-displayed peptide, SEQ ID NO: 19)] with its measured log10 of ELISA signal.
-0.70

Annotate the binder FCWVHPFAHCL [TN9 isolate 02 (phage-displayed peptide, SEQ ID NO: 23)] with its measured log10 of ELISA signal.
-0.70

Annotate the binder FHCIGVWFCLH [TN7 isolate A09 (phage-displayed peptide, SEQ ID NO: 8)] with its measured log10 of ELISA signal.
-1.00

Annotate the binder HACGSWFRPCHA [TN8 isolate 07 (phage-displayed peptide, SEQ ID NO: 15)] with its measured log10 of ELISA signal.
-0.40
